- ASSAY_PROTOCOL: soluble on expression in E. coli; label from the status in PepcDB or PDB records
METRIC_NAME: soluble on expression in E. coli

SEQUENCE	MEASUREMENT
MAHHHHHHMAPQSPSEWDNARRAAKRALTISDEYPPATVERIQKLLQRAETTSNDAVLLSELKSLVQSYFQSPQSLQFLRKERVASKGGGIGVVAARKIPAFSIIGVYPGYLDFMSGEQAKCGRPVPKYALMEYNCANYFNEVFVELQTTFTPFINEPNVDEKSNCAWIQEPHRKNGRLSVICVRDIQEGEELTIGYGPIYPRTYPYCYDAYACHQIEGHTTHPCYSLWHWPTLQEADARFVCHIGYIERDDCYVLWKNET	not soluble
MYEKTKWKIQKMMKKGVFSGASFCFIEGEKEESNCWGLAQVKPTKEQLTSAMLFDVASLTKVVGTTTVILQLVEEGKIILDQSLQTYYPSFQDSNITIRHLLTHTADLQGYIPNRDQLNAQELKDAYNHSFHAGKAIGKKVVYTDAGTILLGFMLEEMFQQSMIEILSERVLLPLGMNESTFLPKNPLNCVPTELHEQRGLIRGATHDPKAFVLREHAGNAGLFSNVYDLTKFVRMYLNRGSYHNHQFLKKETIDLLLVNQVPAADKPRSLGWDFKYDVATQRPLLFHTGYTGTFLLIDVQQQSALIFLSNRVHPEDHRNTYIEERDQLLATYLKEKSSVSDEMTSF	not soluble
